System: L1210 leukemia ip in BDF1 mice, survival T/C
test name: NCI In Vivo Anticancer Drug Screen. Data for tumor model L1210 Leukemia (intraperitoneal) in B6D2F1 (BDF1) mice
conditions used: endpoint: mean survival time; dose: 100.0 mg/kg/injection; schedule: Q01DX009 (ip); vehicle: saline with Tween-80; higher = longer survival
Inconclusive results and toxic doses are left out.
outcome measure: T/C

[[record]]
smiles_input = "COc1ccc(NC(=O)Nc2ccc(F)c([N+](=O)[O-])c2)c(Cl)c1"
test_value = "96 % of control"

[[record]]
smiles_input = "COc1ccc([N+](=O)[O-])cc1NC(=O)Cc1ccccc1"
test_value = "107 % of control"

[[record]]
smiles_input = "CC(C)(C)c1cc(/C=N/NC(=O)CC2CCCCC2)cc(C(C)(C)C)c1O"
test_value = "92 % of control"

[[record]]
smiles_input = "CN(C)N=Nc1ccc(C#N)cc1"
test_value = "91 % of control"

[[record]]
smiles_input = "CNC(=O)O/N=C/c1cccc(OC)c1"
test_value = "93 % of control"


Give T/C for all molecules that follow.
1. CC(C)OC(=S)SSc1nc2ccccc2s1
2. CN(C)c1ccc(/C=N/NC(=O)Cc2cccc3ccccc23)cc1

Response line:
["92 % of control", "90 % of control"]
